Cited source: ChEMBL document CHEMBL5634203

- assay.procedure: Plasma protein binding in rat assessed as unbound fraction
- Type: ADME, cell-free
I'd be grateful if you could share measured fraction unbound for these entries.
Numbers only.

CC(C)Oc1nc2nn(C34COC(C)(C3)C4)cc2cc1C(=O)Nc1cccn([C@@H]2C[C@@H]2F)c1=O    0.083
CC(C)Oc1cc2nn(C34COC(C)(C3)C4)cc2cc1C(=O)Nc1cccn([C@H]2C[C@H]2F)c1=O    0.047

We now examine a further compound.
Request: fraction unbound for CC(C)Oc1nc2nn(C34COC(C)(C3)C4)cc2cc1C(=O)Nc1cccn([C@H]2C[C@H]2F)c1=O ?
Result: 0.0718
